# system_tested: KRasG12C (M1-K169, biotinylated on the N-terminus) (Homo sapiens (Human), UniProt P01116, G12C)
# procedure_text: Covalent competition assay: scintillation proximity assay (SPA) quantifying covalent modification of KRASG12C
# condition_info: competition with radiolabeled covalent probe (Compound B/Compound A), 2 hours incubation, 10 nM KRasG12C
measured_attribute: IC50 (nM)

1. C=CC(=O)N1CC2(CC(n3nc(N4CC[C@@H](CN5CC6(O)CC5C6)CC4(C)C)c(-c4c(Cl)c(Cl)cc5[nH]ncc45)c3C)C2)C1 (single isomer, unassigned) [Example 293b]	10

P. [2H]C1([2H])OC([2H])([2H])C([2H])([2H])N(C[C@@H]2CCN(c3nn(C4CC5(C4)CN(C(=O)C=C)C5)c(C)c3-c3c(Cl)c(Cl)cc4[nH]ncc34)C(C)(C)C2)C1([2H])[2H] (single isomer, unassigned) [Example 283b]
Q. C=CC(=O)N1CC2(CC(n3nc(N4CC[C@@H](CN5CCN(C6COC6)CC5)CC4(C)C)c(-c4c(C)c(Cl)cc5[nH]ncc45)c3C)C2)C1 (single isomer, unassigned) [Example 244a]
R. C=CC(=O)N1CC2(CC(n3nc(N4CCC(CN5CCN(C)CC5=O)CC4(C)C)c(-c4c(Cl)c(Cl)cc5[nH]ncc45)c3C)C2)C1 (single isomer, unassigned) [Example 240a]
Rank descending by IC50. Present the labels in the sequence the task asks for.
Q, R, P
(Q: 1400 nM, R: 390 nM, P: 8 nM)
